Test system: MCF7
measurement_notes: Cytotoxicity against human MCF7 cells after 3 days by sulforhodamine B assay
Assay type: functional, cell-based
condition_parameters: MCF7, 72 h
pIC50: −log10 of the molar value.
Reported pIC50 values are given for each entry in this list.

Name the recorded pIC50 of the molecule listed here: COc1cc(O)c(C(=O)c2c(C)cc(O)cc2OC)c(O)c1Cl < 4.70

Give pIC50 for OCc1cc(O)ccc1O 4.77

Supply measured pIC50 of OCc1cc(O)cc(Br)c1O in your reply. 5.08

Tell us which pIC50 value is on record for COc1cc(O)c2c(=O)c3c(C)cc(O)cc3oc2c1 < 4.70

Return reported pIC50. Input molecule: Cc1cc(O)cc2oc(=O)c3c(O)cc(O)cc3c12 < 4.70

Report pIC50, nothing else, for this molecule: OCc1cc(O)cc(Cl)c1O 4.83

Give pIC50 for the following molecule: O=C1C(CO)=C[C@@H](O)[C@@H](O)[C@@H]1Cl < 4.70

Identify measured pIC50 associated with COC1=CC(=O)C=C(C)[C@]12Oc1cc(OC)cc(OC)c1C2=O < 4.70

// fetch pIC50 given entry O=C1C(CO)=C[C@@H](O)[C@@H](O)[C@H]1Br 5.01

Answer with the recorded pIC50 for the molecule listed here: O=C(OCCO)c1ccccc1 < 4.70

Write down pIC50 measured for item COC1=CC(=O)C[C@@H](C)[C@]12Oc1c(Cl)c(OC)cc(OC)c1C2=O 4.86

Hello, please tell me recorded pIC50 for this one: O=C1C(CO)=C[C@@H](O)[C@@H](O)[C@H]1Cl < 4.70

Annotate the molecule O=C1C(CO)=C[C@@H](O)[C@@H](O)[C@@H]1Br with its measured pIC50. 5.01

Note down pIC50 recorded for COC1=CC(=O)C[C@@H](C)[C@]12Oc1cc(OC)cc(OC)c1C2=O < 4.70

Please list pIC50 recorded for the molecule COc1cc(O)c(C(=O)c2c(C)cc(O)cc2OC)c(O)c1 < 4.70

Could you please provide reported pIC50 for Cc1cc(O)cc2oc3cc(Cl)cc(O)c3c(=O)c12 ? Thanks! < 4.70

For the molecule COc1cc(O)c2c(=O)c3c(C)cc(O)c(O)c3oc2c1 , give its reported pIC50. < 4.70

Look up and state reported pIC50 for Cc1cc(O)cc2oc3cc(O)cc(O)c3c(=O)c12 < 4.70

====

Test system: MCF7
measurement_notes: Cytotoxicity against human MCF7 cells after 3 days by sulforhodamine B assay
Format: functional, cell-based
condition_parameters: MCF7, 72 h
Entries and their pIC50 values follow.
# log scale: pIC50 equals minus log10 of the concentration in mol/L

# molecule, pIC50
records = [
    ("CC[C@@]1(O)C(=O)OCc2c1cc1n(c2=O)Cc2cc3ccccc3nc2-1 [CAMPTOTHECIN]", 7.14),
]

Query molecule follows.
For MCF7, give pIC50 of the listed molecule: O=C1C(CO)=C[C@@H](O)[C@H]2O[C@@H]12 [EPOXYDON] 5.24
